Target or test system: GST-Rok (full length) (Bacillus subtilis subsp. subtilis str. …, UniProt O34857 1-191)
Sequence: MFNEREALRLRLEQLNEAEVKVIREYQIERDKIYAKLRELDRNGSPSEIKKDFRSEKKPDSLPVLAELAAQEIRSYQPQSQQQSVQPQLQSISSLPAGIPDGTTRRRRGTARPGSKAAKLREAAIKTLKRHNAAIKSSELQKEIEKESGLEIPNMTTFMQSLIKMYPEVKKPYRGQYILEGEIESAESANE
Experimental details: protein binding microarray; Rok is a gene silencer of Bacillus subtilis; high values mean tight binding
Test context: protein: recombinant; tags: GST (pTH5325, pDEST15-Magic modified); dsDNA, one strand shown
Over roughly 33,000 sequences, “e-score” has its median near -0.037; the highest 2% begin near 0.34. Only a selection was taken, and the highest values are over-represented in it overall.
Using binding signal as the sorting value, the categories are 1 (below 0.05 E-score), 2 (0.05 E-score to below 0.3 E-score), 3 (0.3 E-score or more)

Primary sequence: CTCTACTA
Target or test system: GST-Rok (full length) (Bacillus subtilis subsp. subtilis str. …, UniProt O34857 1-191)
Label: 2

Primary sequence: GAAGCTAC
Target or test system: GST-Rok (full length) (Bacillus subtilis subsp. subtilis str. …, UniProt O34857 1-191)
Label: 3

Primary sequence: GCGACTTA
Target or test system: GST-Rok (full length) (Bacillus subtilis subsp. subtilis str. …, UniProt O34857 1-191)
Label: 1

Primary sequence: AAAATAAA
Target or test system: GST-Rok (full length) (Bacillus subtilis subsp. subtilis str. …, UniProt O34857 1-191)
Label: 2

Primary sequence: GTAGCTAC
Target or test system: GST-Rok (full length) (Bacillus subtilis subsp. subtilis str. …, UniProt O34857 1-191)
Label: 3

Primary sequence: ACAATTCT
Target or test system: GST-Rok (full length) (Bacillus subtilis subsp. subtilis str. …, UniProt O34857 1-191)
Label: 2

Primary sequence: AATGGTAG
Target or test system: GST-Rok (full length) (Bacillus subtilis subsp. subtilis str. …, UniProt O34857 1-191)
Label: 3

Primary sequence: AAAAACTC
Target or test system: GST-Rok (full length) (Bacillus subtilis subsp. subtilis str. …, UniProt O34857 1-191)
Label: 1

Primary sequence: CCAAACCA
Target or test system: GST-Rok (full length) (Bacillus subtilis subsp. subtilis str. …, UniProt O34857 1-191)
Label: 1

Primary sequence: CATTTGCG
Target or test system: GST-Rok (full length) (Bacillus subtilis subsp. subtilis str. …, UniProt O34857 1-191)
Label: 1

Primary sequence: AAAAACTA
Target or test system: GST-Rok (full length) (Bacillus subtilis subsp. subtilis str. …, UniProt O34857 1-191)
Label: 3

Primary sequence: AACCATGC
Target or test system: GST-Rok (full length) (Bacillus subtilis subsp. subtilis str. …, UniProt O34857 1-191)
Label: 1

Primary sequence: AAACAGCT
Target or test system: GST-Rok (full length) (Bacillus subtilis subsp. subtilis str. …, UniProt O34857 1-191)
Label: 1

Primary sequence: CCAAACTA
Target or test system: GST-Rok (full length) (Bacillus subtilis subsp. subtilis str. …, UniProt O34857 1-191)
Label: 3

Primary sequence: CTAGCTAA
Target or test system: GST-Rok (full length) (Bacillus subtilis subsp. subtilis str. …, UniProt O34857 1-191)
Label: 2

Primary sequence: GATATACC
Target or test system: GST-Rok (full length) (Bacillus subtilis subsp. subtilis str. …, UniProt O34857 1-191)
Label: 2
